Origin of values: PubChem BioAssay AID1159580

Below, each of the compounds is paired with its reported normalized growth value.
assay: chemical genetic growth profiling, strain panel (AID 1159580);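 also: tested at 20 µM; growth read once vehicle control cultures reached saturation at 30 °C; 1 = growth at the plate median or of vehicle wells; lower values mean less growth of the strain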; details: S. cerevisiae deletion strains, growth OD, locus YGL253W, strain hxk2, stronger effect = lower value
Screen size: about 5,500 compounds; about 2,000 (36%) were called active. Not shown: some 18% with an inconclusive outcome. This is one part of the list.

# example entries with known answers
compound	value
COc1c2ccccc2nc2occc12	0.946 (inactive)
COc1cc(OC)c(OC)cc1C=O	0.992 (inactive)
COc1cc(S(C)=O)ccc1-c1nc2ncccc2[nH]1 (stereo not given)	0.987 (inactive)

// field: normalized growth; key: c1ccc2c(c1)CN1CCCC1=N2 ; value = 1 (inactive)

// field: normalized growth; key: C[C@@H]1CC2C3C[C@H](F)C4=CC(=O)C=C[C@]4(C)[C@@]3(F)[C@@H](O)C[C@]2(C)[C@@]1(O)C(=O)COC(=O)C(C)(C)C (stereo not given in full) ; value = 1.01 (inactive)

====

assay: chemical genetic growth profiling, strain panel (AID 1159580);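 also: tested at 20 µM; growth read once vehicle control cultures reached saturation at 30 °C; 1 = growth at the plate median or of vehicle wells; lower values mean less growth of the strain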; settings: S. cerevisiae deletion strains, growth OD, locus YMR125W, strain sto1, stronger effect = lower value
Screen size: about 5,500 compounds; about 2,000 (36%) were called active. About 18% were inconclusive and are not listed. Some of the results follow.
Below, each of the compounds is paired with its reported normalized growth value.
Respond with the number and no other words.

compound	normalized growth
CC1=C2[C@H]3OC(=O)[C@@H](C)[C@@H]3CC[C@@]2(C)C=CC1=O	0.968
CC(=O)O[C@H]1C[C@@H](OC(C)=O)C(C)(C)C2CC(=O)[C@]3(C)C(CC[C@@]4(C)[C@H](c5ccoc5)OC(=O)[C@H]5O[C@]543)[C@]21C (stereo not given in full)	0.98
C[C@@H]1O[C@@H](O[C@H]2C[C@@H](O)[C@]3(CO)C4C(CC[C@]3(O)C2)[C@@]2(O)CC[C@H](C3=CC(=O)OC3)[C@@]2(C)C[C@H]4O)[C@H](O)[C@H](O)[C@H]1O (stereo not given in full)	1.02
O=C(Nc1ccccc1)Nc1ccccc1	0.949
CCN(CC)CCOC(=O)C(c1ccccc1)c1ccccc1	0.949
O=[N+]([O-])c1cccc2cn[nH]c12	0.967
Cc1nc2ccccn2c(=O)c1CCN1CCC(C(=O)c2ccc(F)cc2)CC1	0.962
O=[N+]([O-])c1cccc2c(Br)[nH]nc12	1.01

// field: normalized growth; key: NC(=O)c1ncn(C2O[C@H](CO)[C@@H](O)[C@H]2O)c1N (stereo not given in full) ; value = 1.04

// field: normalized growth; key: NCC(CC(=O)O)c1ccc(Cl)cc1 (stereo not given) ; value = 0.97

// field: normalized growth; key: CC(=O)Nc1ccccc1 ; value = 0.944

// field: normalized growth; key: N[C@@H]1[C@@H](O)[C@H](O)[C@@H](CO)O[C@H]1O ; value = 1.04

// field: normalized growth; key: CC[C@H](CCC(C)[C@H]1CCC2C3CCC4C[C@@H](O)CC[C@]4(C)C3CC[C@@]21C)C(C)C (stereo not given in full) ; value = 0.969

// field: normalized growth; key: Cc1cc(O)c(C=O)c2c1C(=O)Oc1c(COC(=O)/C=C/C(=O)O)c(O)c(C(=O)O)c(C)c1O2 ; value = 1.08

// field: normalized growth; key: O=C(O)CCCOc1ccc(Cl)cc1Cl ; value = 0.913
